As shown below, each of these compounds has a reported T/C value.
Test system: L1210 leukemia ip in BDF1 mice, survival T/C
Assay: NCI In Vivo Anticancer Drug Screen. Data for tumor model L1210 Leukemia (intraperitoneal) in B6D2F1 (BDF1) mice
Details: endpoint: mean survival time; dose: 400.0 mg/kg/injection; schedule: Q04DX002 (ip); vehicle: saline with Tween-80; higher = longer survival
Inconclusive results and toxic doses are left out.

Solved cases below.
COMPOUND	RESULT
CCOc1ccc(NC(=O)Oc2ccc(C(=O)OC)cc2)cc1	103 % of control
CCOC(=O)C1C(=O)C=C(c2ccccc2)CC1c1ccccc1 (stereo not given)	97 % of control
COC1OC(COC(c2ccccc2)(c2ccccc2)c2ccccc2)C(OS(=O)(=O)c2ccc(C)cc2)C(OC(=O)c2ccccc2)C1OC(=O)c1ccccc1 (stereo not given)	90 % of control

Request: Look up T/C: CCOC(=O)/C=C(\N)c1ccccc1
Response: 91 % of control

Request: Look up T/C: c1ccc([Si]2(c3ccccc3)[Si](c3ccccc3)(c3ccccc3)[Si](c3ccccc3)(c3ccccc3)[Si](c3ccccc3)(c3ccccc3)[Si](c3ccccc3)(c3ccccc3)[Si]2(c2ccccc2)c2ccccc2)cc1
Response: 86 % of control

Request: Look up T/C: Clc1cccc(N=C(Oc2cccc(Cl)c2)c2ccccc2)c1
Response: 93 % of control

Request: Look up T/C: c1cc[c]([Ge]([CH2][CH2][Sn]([c]2ccccc2)([c]2ccccc2)[c]2ccccc2)([c]2ccccc2)[c]2ccccc2)cc1
Response: 98 % of control

Request: Look up T/C: Cc1ccc(C(=O)/C=C/c2cccc3ccccc23)cc1
Response: 94 % of control

Request: Look up T/C: CN(C(=O)c1ccc([N+](=O)[O-])cc1)C(c1ccco1)P(=O)(c1ccccc1)c1ccccc1 (stereo not given)
Response: 93 % of control

Request: Look up T/C: CCOC(=O)C1CCCCC1O (stereo not given)
Response: 104 % of control

----------
System: L1210 leukemia ip in BDF1 mice, survival T/C
Experiment: NCI In Vivo Anticancer Drug Screen. Data for tumor model L1210 Leukemia (intraperitoneal) in B6D2F1 (BDF1) mice
Conditions: endpoint: mean survival time; dose: 400.0 mg/kg/injection; schedule: Q01DX001 (ip); vehicle: saline; higher = longer survival
Procedure: The antitumor activity of compounds was measured in mice bearing transplantable tumors. Survival or tumor size were measured and the results are expressed as the measurement made in the treated group (T) divided by the measurement made in the vehicle treated control group (C). The tumor model used in this assay is L1210 Leukemia (intraperitoneal) in B6D2F1 (BDF1) mice
Toxic doses and inconclusive results are not listed.
As shown below, each of these compounds has a reported T/C value.

>>> print(df.to_string())
                               input_smiles                           measured_target  measurement_label            result
0    Cc1cc2nc3[nH]c4c(Cl)cc(Cl)cc4c3nc2cc1C  L1210 leukemia ip in BDF1 mice, survival T/C                T/C   89 % of control
1                          CC(C)N(N=O)C(C)C  L1210 leukemia ip in BDF1 mice, survival T/C                T/C   98 % of control
2  O=S(=O)(Nc1ccccn1)c1ccc(N=Nc2ccc(O)c3ncccc23)cc1  L1210 leukemia ip in BDF1 mice, survival T/C                T/C  103 % of control

Lab note: next compound to report on.
Request: Look up T/C: ClC1(Cl)c2ccccc2-c2ccccc21
Response: 110 % of control
